Cited source: patent US11932628B2

# Experimental Target: mMC3R (Mus musculus)
# Sequence (P33033 whole entry): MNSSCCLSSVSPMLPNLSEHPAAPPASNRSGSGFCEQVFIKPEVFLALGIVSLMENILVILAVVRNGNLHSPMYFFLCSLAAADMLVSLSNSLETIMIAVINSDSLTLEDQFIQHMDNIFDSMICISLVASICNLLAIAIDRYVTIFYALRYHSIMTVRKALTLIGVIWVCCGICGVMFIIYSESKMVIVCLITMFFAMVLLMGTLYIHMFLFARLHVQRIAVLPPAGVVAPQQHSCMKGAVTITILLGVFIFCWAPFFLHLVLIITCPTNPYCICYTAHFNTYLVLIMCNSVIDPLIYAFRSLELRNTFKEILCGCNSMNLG
# Protocol Notes: cAMP based functional bioassay (CRE/β-galactosidase reporter), agonist activity at mMC3R
Measurement Kind: EC50 (µM)

Example entries and their recorded answers appear below.
{"Compound": "CCC[C@@H]1CN([C@H](CC2CCCCC2)CN2CCC[C@H]2CN2C(=N)NC[C@H]2C(C)C)C(=N)N1CC12CC3CC(CC(C3)C1)C2", "Readout Unit": "µM", "EC50": 2.8}
{"Compound": "CC(C)[C@@H]1CNC(=N)N1C[C@@H]1CCCN1C[C@@H](CC1CCCCC1)N1C[C@@H](C(C)C)N(CC2CCC(C(C)(C)C)CC2)C1=N (stereo partly shown)", "Readout Unit": "µM", "EC50": 4.3}
{"Compound": "CCC[C@@H]1CN([C@H](CC2CCCCC2)CN2CCC[C@H]2CN2C(=N)NC[C@H]2C(C)C)C(=N)N1CC1CCC(C(C)(C)C)CC1 (stereo partly shown)", "Readout Unit": "µM", "EC50": 0.35}

I. CC(C)C[C@@H]1CNC(=N)N1C[C@@H]1CCCN1C[C@@H](CC1CCCCC1)N1C[C@@H]([C@@H](C)O)N(CC23CC4CC(CC(C4)C2)C3)C1=N
II. CC(C)[C@@H]1CNC(=N)N1C[C@@H]1CCCN1C[C@@H](CC1CCCCC1)N1C[C@@H](C(C)C)N(CC23CC4CC(CC(C4)C2)C3)C1=N
Param metric = EC50; output whichever of I , II has the minimum value. Respond with the label that goes with your answer.
I
